These data points were gathered from patent US20070054899A1.

measurement target: aromatase (e)
Assay type: biochemical
condition notes: value marked (e); read-out: Activity In vitro IC50(nM), (e)
Response field label takes Y when IC50 is strictly below 30 nM and N in all other cases.

Solved cases below.
>>> print(df.to_string())
                                   compound  label_value
0  N#Cc1ccc(C(c2ccc3[nH]c(=O)oc3c2)n2ccnc2)cc1 (centres unmarked)            Y
1  Cn1c(=O)oc2cc(C(c3ccncc3)n3ccnc3)ccc21 (centres unmarked)            N
2  CN1C(=O)COc2cc(C(c3ccccc3)n3ccnc3)ccc21 (centres unmarked)            N
3  N#Cc1cccc(C(c2ccc3[nH]c(=O)oc3c2)n2ccnc2)c1 (centres unmarked)            Y

Please examine the following record next.
Req: A record lists O=c1[nH]c2cc(C(c3ccccc3)n3ccnc3)ccc2o1 (centres unmarked) . Is its IC50 below 30 nM?
Resp: Y

###

measurement target: aromatase (microsomes from the human placenta) (Homo sapiens, UniProt P11511)
Construct: using microsomes from the human placenta as source of the enzyme; from tissue; host or cells: human placenta microsomes
Sequence (P11511 whole entry): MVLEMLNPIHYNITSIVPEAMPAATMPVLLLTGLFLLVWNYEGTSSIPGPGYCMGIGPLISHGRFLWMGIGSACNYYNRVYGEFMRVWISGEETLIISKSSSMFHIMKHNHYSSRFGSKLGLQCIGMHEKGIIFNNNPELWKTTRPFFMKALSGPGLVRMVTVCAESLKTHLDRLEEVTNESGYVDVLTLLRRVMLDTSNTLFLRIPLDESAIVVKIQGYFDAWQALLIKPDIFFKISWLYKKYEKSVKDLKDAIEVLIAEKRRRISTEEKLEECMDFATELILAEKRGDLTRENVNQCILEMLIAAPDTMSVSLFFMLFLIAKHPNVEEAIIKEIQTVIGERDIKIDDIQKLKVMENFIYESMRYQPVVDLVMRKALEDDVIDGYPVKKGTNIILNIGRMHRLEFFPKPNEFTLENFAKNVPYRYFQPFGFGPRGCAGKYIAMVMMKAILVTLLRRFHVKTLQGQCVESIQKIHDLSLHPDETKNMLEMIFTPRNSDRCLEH
assay: Aromatase inhibition in vitro, tritiated water method, human placenta microsomes
Type: biochemical
condition notes: value marked (h); read-out: Activity In vitro IC50(nM), (h)
Recorded IC50, one value per entry.
Express it in nM; write the number only.

>>> print(df.to_string())
                                   compound  attribute_measured  readout_units  value
0  CN1C(=O)COc2cc(C(c3ccccc3)n3ccnc3)ccc21 (stereo not shown)                IC50             nM   52.5
1  O=c1[nH]c2ccc(C(c3ccccc3)n3ccnc3)cc2o1 (stereo not shown)                IC50             nM   84.6
2  Cn1c(=O)oc2cc(C(c3cccnc3)n3ccnc3)ccc21 (stereo not shown)                IC50             nM   33.7

Req: Quick one: give measured IC50 for Cn1c(=O)oc2cc(C(c3cccc(C#N)c3)n3ccnc3)ccc21 (stereo not shown)
Resp: 18.6

Req: Quick one: give measured IC50 for N#Cc1cccc(C(c2ccc3[nH]c(=O)oc3c2)n2ccnc2)c1 (stereo not shown)
Resp: 25.1

Req: Quick one: give measured IC50 for Cn1c(=O)oc2ccc(C(c3ccccc3)n3ccnc3)cc21 (stereo not shown)
Resp: 46.6

Req: Quick one: give measured IC50 for N#Cc1ccc(C(c2ccc3[nH]c(=O)oc3c2)n2ccnc2)cc1 (stereo not shown)
Resp: 13.2

Req: Quick one: give measured IC50 for O=c1[nH]c2ccc(C(c3ccccc3)n3ccnc3)cc2s1 (stereo not shown)
Resp: 33.7

###

Recorded IC50, one value per entry.
measurement target: UniProt:O46512
Sequence (O46512 whole entry): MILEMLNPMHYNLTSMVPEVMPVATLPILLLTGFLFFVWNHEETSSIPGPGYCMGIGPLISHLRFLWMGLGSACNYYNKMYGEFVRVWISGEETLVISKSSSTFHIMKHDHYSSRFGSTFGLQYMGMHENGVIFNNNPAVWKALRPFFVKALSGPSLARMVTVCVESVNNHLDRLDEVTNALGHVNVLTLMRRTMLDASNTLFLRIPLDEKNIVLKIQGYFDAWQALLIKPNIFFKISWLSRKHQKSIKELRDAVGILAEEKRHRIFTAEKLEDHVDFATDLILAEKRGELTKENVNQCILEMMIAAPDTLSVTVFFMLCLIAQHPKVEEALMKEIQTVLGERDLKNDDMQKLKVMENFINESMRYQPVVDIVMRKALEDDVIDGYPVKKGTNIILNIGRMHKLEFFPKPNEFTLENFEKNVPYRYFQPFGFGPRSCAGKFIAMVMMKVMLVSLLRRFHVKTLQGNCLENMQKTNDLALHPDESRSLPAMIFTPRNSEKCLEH
Type: biochemical
condition notes: value marked (e); read-out: Activity In vitro IC50(nM), (e)

# count of solved cases: 2
                                   compound  measurement_target  attribute_measured    value
0  O=c1[nH]c2ccc(C(c3ccccc3)n3ccnc3)cc2s1 (stereo not drawn)      UniProt:O46512                IC50    34 nM
1  Cn1c(=O)sc2cc(C(c3ccccc3)n3ccnc3)ccc21 (racemic) [(E2) PCH28]      UniProt:O46512                IC50  22.6 nM

Field: next compound
Req: Quick one: give measured IC50 for O=c1[nH]c2ccc(C(c3ccccc3)n3ccnc3)cc2o1 (stereo not drawn)
Resp: 103 nM
